The following compounds are shown together with reported IC50 at 48 h values.
- testMethodNotes: Cell viability
- Type: cell-based
- particulars: human, HUVEC cells

Worked examples follow.
CCCOc1ccc(/C=C/C(=O)O)cc1OC ... > 100 µM
CCOc1ccc(/C=C/C(=O)O)cc1OC ... > 100 µM
CCCCCOc1c(OC)cc(C(=O)O)cc1OC ... > 100 µM
CCCCCCCCCCOc1c(OC)cc(C(=O)O)cc1OC ... 35.4 µM
CCCCCCOc1ccc(/C=C/C(=O)O)cc1OC ... > 100 µM

The measured IC50 at 48 h associated with "CCCCCOc1ccc(/C=C/C(=O)O)cc1OC" reads > 100 µM

The measured IC50 at 48 h associated with "CCCOc1c(OC)cc(C(=O)O)cc1OC" reads > 100 µM

The measured IC50 at 48 h associated with "CCCCCCCCCCOc1ccc(/C=C/C(=O)O)cc1OC" reads 26.4 µM

The measured IC50 at 48 h associated with "CCCCCCCCOc1c(OC)cc(C(=O)O)cc1OC" reads 55.9 µM

====

- testMethodNotes: Cell viability
- Format: cell-based
- particulars: human, Caco-2 cells
propertyName: IC50 at 72 h

Worked examples follow.
CCOc1c(OC)cc(C(=O)O)cc1OC [Compound 5a, 4-Ethoxy-3,5-dimethoxybenzoic acid] ... > 100 µM
CCCOc1ccc(/C=C/C(=O)O)cc1OC [Compound 3b] ... > 100 µM
CCCOc1c(OC)cc(C(=O)O)cc1OC [Compound 5b, 3,5-Dimethoxy-4-propoxybenzoic acid] ... > 100 µM
CCOc1ccc(/C=C/C(=O)O)cc1OC [Compound 3a] ... > 100 µM
CCCCCCOc1c(OC)cc(C(=O)O)cc1OC [Compound 5d, 4-(Hexyloxy)-3,5-dimethoxybenzoic acid] ... > 100 µM

The measured IC50 at 72 h associated with CCCCCCOc1ccc(/C=C/C(=O)O)cc1OC [Compound 3d] reads > 100 µM

The measured IC50 at 72 h associated with CCCCCCCCOc1c(OC)cc(C(=O)O)cc1OC [Compound 5e, 3,5-Dimethoxy-4-(octyloxy)benzoic acid] reads > 100 µM

The measured IC50 at 72 h associated with CCCCCOc1c(OC)cc(C(=O)O)cc1OC [Compound 5c, 3,5-Dimethoxy-4-(pentyloxy)benzoic acid] reads > 100 µM

====

- particulars: SO + additive at 200 ppm; TGA in air
propertyName: T 50 (50% mass loss) (°C)
I only need the number, in °C, no unit after it.

Worked examples follow.
CCCCCOc1ccc(/C=C/C(=O)O)cc1OC ... 424
CCCOc1c(OC)cc(C(=O)O)cc1OC ... 420
CCCCCOc1c(OC)cc(C(=O)O)cc1OC ... 426

Now turn to the next compound.
The measured T 50 (50% mass loss) associated with "CCCOc1ccc(/C=C/C(=O)O)cc1OC" reads 423

====

The following molecules are shown together with reported IC50 at 48 h values.
- testMethodNotes: Cell viability
- Assay type: cell-based
- particulars: human, Caco-2 cells

Worked examples follow.
CCCCCCOc1c(OC)cc(C(=O)O)cc1OC ... > 100 µM
CCCCCCOc1ccc(/C=C/C(=O)O)cc1OC ... > 100 µM

The measured IC50 at 48 h associated with "CCCCCOc1c(OC)cc(C(=O)O)cc1OC" reads > 100 µM

====

- testMethodNotes: DPPH˙ scavenging activity
- particulars: 30 min, 515 nm; tested 10–100 µg mL^−1
Note to self: values exactly at 30 µg/mL are class 1. So Antioxidant capacity (DPPH), IC50 at or above 30 µg/mL is class 1, below is class 0.

Check out these entries, answers already filled in.
CCCCCOc1ccc(/C=C/C(=O)O)cc1OC ... class 1
CCCCCCCCOc1c(OC)cc(C(=O)O)cc1OC ... class 1
CCCCCCOc1c(OC)cc(C(=O)O)cc1OC ... class 1
CCCCCCOc1ccc(/C=C/C(=O)O)cc1OC ... class 1
CCCCCCCCCCOc1c(OC)cc(C(=O)O)cc1OC ... class 1
CCCCCOc1c(OC)cc(C(=O)O)cc1OC ... class 1
CCCOc1ccc(/C=C/C(=O)O)cc1OC ... class 1
CCOc1c(OC)cc(C(=O)O)cc1OC ... class 0

// inclusive: Antioxidant capacity (DPPH), IC50 at least 30 µg/mL? input: COc1cc(C(=O)O)cc(OC)c1O [Compound 4, syringic acid, reference compound]
class 0

====

- testMethodNotes: Cell viability
- Format: cell-based
- particulars: human, HUVEC cells
The following compounds are shown together with reported IC50 at 24 h values.

The measured IC50 at 24 h associated with "CCOc1c(OC)cc(C(=O)O)cc1OC" reads > 100 µM

The measured IC50 at 24 h associated with "CCOc1ccc(/C=C/C(=O)O)cc1OC" reads > 100 µM

The measured IC50 at 24 h associated with "CCCCCCCCCCOc1c(OC)cc(C(=O)O)cc1OC" reads 47.2 µM

The measured IC50 at 24 h associated with "CCCCCCOc1ccc(/C=C/C(=O)O)cc1OC" reads > 100 µM

====

- particulars: SO + additive at 200 ppm; TGA in air
propertyName: T onset (decomposition temperature: onset temperature)

CCCCCOc1c(OC)cc(C(=O)O)cc1OC ... 318 °C

The measured T onset (decomposition temperature: onset temperature) associated with "CCCCCOc1ccc(/C=C/C(=O)O)cc1OC" reads 343 °C

The measured T onset (decomposition temperature: onset temperature) associated with "CCCOc1ccc(/C=C/C(=O)O)cc1OC" reads 344 °C

The measured T onset (decomposition temperature: onset temperature) associated with "CCCOc1c(OC)cc(C(=O)O)cc1OC" reads 305 °C

====

- testMethodNotes: Cell viability
- Assay type: cell-based
- particulars: human, Caco-2 cells
The following compounds are shown together with reported IC50 at 24 h values.

CCCCCCOc1ccc(/C=C/C(=O)O)cc1OC [Compound 3d] ... > 100 µM
CCCCCCCCOc1ccc(/C=C/C(=O)O)cc1OC [Compound 3e] ... > 100 µM

The measured IC50 at 24 h associated with CCCCCCOc1c(OC)cc(C(=O)O)cc1OC [Compound 5d, 4-(Hexyloxy)-3,5-dimethoxybenzoic acid] reads > 100 µM

====

The following compounds are shown together with reported Reduction in secondary oxidation (TBARS) in comparison with SOcontrol values.
- testMethodNotes: Lipoperoxidation
- particulars: SO + additive 200 ppm, 220 °C
I only need the number, in times, no unit after it.

The measured Reduction in secondary oxidation (TBARS) in comparison with SOcontrol associated with CCCCCOc1c(OC)cc(C(=O)O)cc1OC [Compound 5c, 3,5-Dimethoxy-4-(pentyloxy)benzoic acid] reads 5

====

- testMethodNotes: Cell viability
- Assay type: cell-based
- particulars: human, HUVEC cells
propertyName: IC50 at 72 h

CCCCCCOc1c(OC)cc(C(=O)O)cc1OC ... > 100 µM
CCCOc1ccc(/C=C/C(=O)O)cc1OC ... > 100 µM
CCOc1ccc(/C=C/C(=O)O)cc1OC ... > 100 µM
CCCCCOc1ccc(/C=C/C(=O)O)cc1OC ... > 100 µM
CCCCCCCCOc1ccc(/C=C/C(=O)O)cc1OC ... 54.4 µM

The measured IC50 at 72 h associated with "CCOc1c(OC)cc(C(=O)O)cc1OC" reads > 100 µM

The measured IC50 at 72 h associated with "CCCCCCCCOc1c(OC)cc(C(=O)O)cc1OC" reads 53.3 µM

The measured IC50 at 72 h associated with "CCCCCCOc1ccc(/C=C/C(=O)O)cc1OC" reads > 100 µM

The measured IC50 at 72 h associated with "CCCCCCCCCCOc1ccc(/C=C/C(=O)O)cc1OC" reads 25.4 µM

The measured IC50 at 72 h associated with "CCCOc1c(OC)cc(C(=O)O)cc1OC" reads > 100 µM

The measured IC50 at 72 h associated with "CCCCCOc1c(OC)cc(C(=O)O)cc1OC" reads > 100 µM

The measured IC50 at 72 h associated with "CCCCCCCCCCOc1c(OC)cc(C(=O)O)cc1OC" reads 29.3 µM

====

- testMethodNotes: Cell viability
- Type: cell-based
- particulars: human, Caco-2 cells
propertyName: IC50 at 48 h

Worked examples follow.
CCOc1ccc(/C=C/C(=O)O)cc1OC ... > 100 µM
CCCCCCCCOc1c(OC)cc(C(=O)O)cc1OC ... > 100 µM
CCCCCCCCCCOc1ccc(/C=C/C(=O)O)cc1OC ... 88.7 µM
CCCOc1ccc(/C=C/C(=O)O)cc1OC ... > 100 µM
CCCOc1c(OC)cc(C(=O)O)cc1OC ... > 100 µM

Now turn to the next molecule.
The measured IC50 at 48 h associated with "CCCCCOc1ccc(/C=C/C(=O)O)cc1OC" reads > 100 µM
